Tested on: IGROV1 ovarian
Assay: NCI tumour cell line growth inhibition, 48 h; in the data active means GI50 below about 0.43 µM; inactive means the rest
Pick from True (active), False (inactive) when you respond.

Observe how each entry below is paired with its result.
1. O=c1cc(-c2ccccc2)[nH]n1-c1nc2ccccc2[nH]1 = False
2. CO[C@@H]1/C=C(C)/C=C/[C@@H](C)/C=C(\C)C(=O)OC(/C(C)=C/C=C(\C)CNC(=O)[C@H](CO)NC=O)[C@@H](C)/C=C/C=C/[C@H](OC)CC/C=C(C)/C=C/C1 (some centres undefined) = True
3. NS(=O)(=O)c1cccc(N=Cc2c(O)[nH]c3ccccc23)c1 = False

Please let me know the test result on file for O=Nc1ccc2ccccc2c1O .
False
